- Target or test system: human TLR8 (Homo sapiens (Human), UniProt Q9NR97)
- Sequence (Q9NR97 27-1041): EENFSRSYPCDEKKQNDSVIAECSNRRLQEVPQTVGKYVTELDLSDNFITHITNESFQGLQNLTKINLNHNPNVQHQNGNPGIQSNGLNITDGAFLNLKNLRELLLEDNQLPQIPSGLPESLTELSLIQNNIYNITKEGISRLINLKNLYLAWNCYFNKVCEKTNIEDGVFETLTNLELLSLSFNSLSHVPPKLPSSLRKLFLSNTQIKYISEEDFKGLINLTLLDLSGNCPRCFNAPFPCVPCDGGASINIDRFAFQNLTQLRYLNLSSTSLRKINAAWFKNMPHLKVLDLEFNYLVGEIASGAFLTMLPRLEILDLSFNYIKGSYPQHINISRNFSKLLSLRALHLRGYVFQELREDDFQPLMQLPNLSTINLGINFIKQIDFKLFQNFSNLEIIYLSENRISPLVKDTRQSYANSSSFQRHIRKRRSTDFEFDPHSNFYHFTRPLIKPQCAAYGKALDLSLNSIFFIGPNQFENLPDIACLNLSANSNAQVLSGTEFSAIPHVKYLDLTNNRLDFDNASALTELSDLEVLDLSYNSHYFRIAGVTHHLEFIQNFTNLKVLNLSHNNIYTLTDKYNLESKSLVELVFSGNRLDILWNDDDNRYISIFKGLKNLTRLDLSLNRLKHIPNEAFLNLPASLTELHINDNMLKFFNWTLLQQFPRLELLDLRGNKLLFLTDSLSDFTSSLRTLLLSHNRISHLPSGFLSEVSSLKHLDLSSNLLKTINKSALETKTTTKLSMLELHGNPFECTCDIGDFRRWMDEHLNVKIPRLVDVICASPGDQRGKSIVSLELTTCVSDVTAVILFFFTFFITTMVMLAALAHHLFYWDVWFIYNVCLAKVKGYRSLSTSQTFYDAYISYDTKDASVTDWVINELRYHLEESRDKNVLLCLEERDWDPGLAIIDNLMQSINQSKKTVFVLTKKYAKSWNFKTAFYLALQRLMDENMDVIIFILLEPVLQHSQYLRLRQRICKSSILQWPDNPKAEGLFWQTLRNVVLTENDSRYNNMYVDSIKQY
- Test description: TLR8 inhibition reporter assay (HEK-Blue SEAP);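 note: SEAP driven by IFN-β minimal promoter carrying NF-κB and AP-1 sites, compounds dosed 0.05 nM to 50 µM for 22 h, inhibition scaled between agonist-plus-DMSO and reference-inhibitor wells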
- Details: read-out: TLR8 IC50; HEK-Blue human TLR8 cells, R848 15.9 μM
Parameter measured: IC50 (nM)

Example entries and their recorded answers appear below.
Form: molecule = `Cc1c(-c2[nH]c3ccc(N4CCN(C(=O)CN(C)C(C)(C)C)[C@H](C)C4)nc3c2C(C)C)cn2ncnc2c1C` ; IC50 = 4.9

Form: molecule = `Cc1c(-c2[nH]c3ccc(N4CCN(C(=O)CN(C)CC5CC5)CC4)nc3c2C(C)C)cn2ncnc2c1C` ; IC50 = 1.3

Form: molecule = `Cc1c(-c2[nH]c3ccc(N4C[C@@H](C)N(C(=O)CN(C)C)[C@H](C)C4)nc3c2C(C)C)cn2ncnc2c1C` ; IC50 = 3.8

P. Cc1c(-c2[nH]c3ccc(N4C[C@@H](C)N(CCCS(C)(=O)=O)[C@@H](C)C4)nc3c2C(C)C)cn2ncnc2c1C
Q. Cc1c(-c2[nH]c3ccc(N4CCN(CC(N)=O)C[C@@H]4C)nc3c2C(C)C)cn2ncnc2c1C
**Query** Form: Entry with minimum IC50 (choose one): P / Q Answer by quoting the chosen item's label.
**Result** Q

P. Cc1c(-c2[nH]c3ccc(N4C[C@H](C)N(CCCS(C)(=O)=O)C[C@@H]4C)nc3c2C(C)C)cn2ncnc2c1C
Q. Cc1c(-c2[nH]c3ccc(N4CCN(C(=O)CN5CC6(CCOC6)C5)CC4)nc3c2C(C)C)cn2ncnc2c1C
**Query** Compare the recorded IC50 of P and Q ; state which is larger. Answer by quoting the chosen item's label.
**Result** P
(P: 8.1 nM, Q: 1.9 nM)

I. COc1cc(-c2[nH]c3ccc(C4CCC(N5CC6(COC6)C5)CC4)nc3c2C(C)C)cn2ncnc12 (stereo not shown)
II. Cc1c(-c2[nH]c3ccc(C4CC5(C4)CN(CC(C)(C)O)C5)nc3c2C(C)C)cn2ncnc2c1C
III. Cc1c(-c2[nH]c3ccc(N4CCN(C(=O)CNC5CC5)C[C@H]4C)nc3c2C(C)C)cn2ncnc2c1C
IV. Cc1c(-c2[nH]c3ccc(C4CCC(N5CC6(CCS6(=O)=O)C5)CC4)nc3c2C(C)C)cn2ncnc2c1C (stereo not shown) [Example 1077]
V. Cc1c(-c2[nH]c3ccc(N4CC5(C4)CN(C4COC4)C5)nc3c2C(C)C)cn2ncnc2c1C
**Query** I would appreciate it if you could sort these 5 molecules by IC50, starting from the smallest number. Give the labels in the order requested.
**Result** II, III, I, V, IV

====

- Target or test system: human TLR9 (Homo sapiens (Human))
- Test description: TLR9 inhibition reporter assay (HEK-Blue SEAP)
- Details: read-out: TLR9 IC50; HEK-Blue cells overexpressing human TLR9, SEAP reporter, ODN2006 5 nM
Parameter measured: IC50 (nM)

Form: compound = COc1cc(-c2[nH]c3ccc(OC4CCN(C)CC4)nc3c2C(C)C)cn2ncnc12 [Example 600] ; IC50 = 2050

Form: compound = Cc1c(-c2[nH]c3ccc(C4CC(NCC5(C)COC5)C4)nc3c2C(C)C)cn2ncnc2c1C (stereo not shown) [Example 637] ; IC50 = 1360

Form: compound = Cc1cc(-c2[nH]c3ccc(C4CCNCC4)nc3c2C(C)C)cn(C)c1=O [Example 515] ; IC50 = 223

Form: compound = Cc1c(-c2[nH]c3ccc(C4CCC(NC5(C)COC5)CC4)nc3c2C(C)C)cn2ncnc2c1C (stereo not shown) [Example 473] ; IC50 = 7370

P. Cc1c(-c2[nH]c3ccc(C4CCC(NCC5(S(C)(=O)=O)CC5)CC4)nc3c2C(C)C)cn2ncnc2c1C (stereo not shown) [Example 419]
Q. COc1cc(-c2[nH]c3ccc(C4CNCCO4)nc3c2C(C)C)cn2ncnc12 (stereo not shown) [Example 671]
**Query** Form: Entry with minimum IC50 (choose one): P / Q Answer by quoting the chosen item's label.
**Result** P

I. Cc1c(-c2[nH]c3ccc(N4C[C@H](C)N(C(=O)CCN(C)C)C[C@@H]4C)nc3c2C(C)C)cn2ncnc2c1C [Example 789]
II. Cc1cc(-c2[nH]c3ccc(C4CCN(CC(=O)N(C)C)CC4)nc3c2C(C)C)cn2ncnc12 [Example 533]
**Query** Form: Entry with minimum IC50 (choose one): I / II Answer by quoting the chosen item's label.
**Result** II
(II: 1460 nM, I: 13300 nM)

I. Cc1c(-c2[nH]c3ccc(C4CCC(N(C)CC5(S(C)(=O)=O)CC5)CC4)nc3c2C(C)C)cn2ncnc2c1C (stereo not shown) [Example 476]
II. Cc1cc(-c2[nH]c3ccc(C4CCN(C(=O)CN(C)C)CC4)nc3c2C(C)C)cn2ncnc12 [Example 550]
III. Cc1c(-c2[nH]c3ccc(C4CC5(CNC5)C4)nc3c2C(C)C)cn2ncnc2c1C [Example 745]
IV. Cc1c(-c2[nH]c3ccc(C4CCC(N(C)C(=O)CN(C)C)CC4)nc3c2C(C)C)cn2ncnc2c1C (stereo not shown) [Example 396]
V. CNC(=O)CN(C)C1CCC(c2ccc3[nH]c(-c4cn5ncnc5c(C)c4C)c(C(C)C)c3n2)CC1 (stereo not shown) [Example 422]
**Query** # desc sort on IC50 across 5 compounds Give the labels in the order requested.
**Result** I, V, III, IV, II

====

Measured IC50, listed per entry for reference.
- Target or test system: UniProt Q9NR96
- Test description: TLR9 inhibition reporter assay (HEK-Blue SEAP)
- Details: read-out: TLR9 IC50; HEK-Blue cells overexpressing human TLR9, SEAP reporter, ODN2006 5 nM

Example entries and their recorded answers appear below.
Form: compound = Cc1cc(-c2[nH]c3ccc(C4CN(C)CCO4)nc3c2C(C)C)cn(C)c1=O (stereo not drawn) ; IC50 = > 50 µM

Form: compound = Cc1cc(-c2[nH]c3ccc(C4CN(C(C)C)CCO4)nc3c2C(C)C)cn(C)c1=O (stereo not drawn) ; IC50 = > 50 µM

More entries:
Form: compound = COc1cc(-c2[nH]c3ccc(C4CCC(NCCS(C)(=O)=O)C4)nc3c2C(C)C)cn2ncnc12 (stereo not drawn) ; IC50 = > 50 µM

====

- Target or test system: UniProt:Q9NR97
- Test description: TLR8 inhibition reporter assay (HEK-Blue SEAP)
- Details: read-out: TLR8 IC50; HEK-Blue human TLR8 cells, R848 15.9 μM
Parameter measured: IC50 (nM)

Example entries and their recorded answers appear below.
Form: molecule = Cc1c(-c2[nH]c3ccc(N4[C@@H]5CC[C@H]4CN(C(=O)CN4CC6(COC6)C4)C5)nc3c2C(C)C)cn2ncnc2c1C [Example 920] ; IC50 = 5.9

Form: molecule = Cc1c(-c2[nH]c3ccc(N4CC5(CN(CC(C)C)C5)C4)nc3c2C(C)C)cn2ncnc2c1C [Example 1009] ; IC50 = 7.7

Form: molecule = Cc1c(-c2[nH]c3ccc(C4CCC(N5CC(C)(C)C5)CC4)nc3c2C(C)C)cn2ncnc2c1C (stereo not drawn) [Example 1052] ; IC50 = 17

Form: molecule = CCN(C)CC(=O)N1C[C@H](C)N(c2ccc3[nH]c(-c4cn5ncnc5c(C)c4C)c(C(C)C)c3n2)C[C@H]1C [Example 893] ; IC50 = 0.74

Form: molecule = CCCN(C)CC(=O)N1CCN(c2ccc3[nH]c(-c4cn5ncnc5c(C)c4C)c(C(C)C)c3n2)CC1 [Example 873] ; IC50 = 1.8

Form: molecule = Cc1c(-c2[nH]c3ccc(N4CC5(CN(C(=O)CCN(C)C)C5)C4)nc3c2C(C)C)cn2ncnc2c1C [Example 1006] ; IC50 = 9.6

1. CCC[C@H]1CNCCN1c1ccc2[nH]c(-c3cn4ncnc4c(C)c3C)c(C(C)C)c2n1 [Example 986]
2. Cc1c(-c2[nH]c3ccc(N4CCN(C5COC5)C[C@@H]4C)nc3c2C(C)C)cn2ncnc2c1C [Example 813]
3. COC1CN(C2CCC(c3ccc4[nH]c(-c5cn6ncnc6c(C)c5C)c(C(C)C)c4n3)CC2)C1 (stereo not drawn) [Example 1045]
**Query** I would appreciate it if you could sort these 3 molecules by IC50, starting from the smallest number. Give the labels in the order requested.
**Result** 1, 3, 2
(1: 0.38 nM, 3: 3.6 nM, 2: 9.1 nM)

====

- Target or test system: human TLR9 (Homo sapiens (Human), UniProt Q9NR96)
- Sequence (Q9NR96 26-1032): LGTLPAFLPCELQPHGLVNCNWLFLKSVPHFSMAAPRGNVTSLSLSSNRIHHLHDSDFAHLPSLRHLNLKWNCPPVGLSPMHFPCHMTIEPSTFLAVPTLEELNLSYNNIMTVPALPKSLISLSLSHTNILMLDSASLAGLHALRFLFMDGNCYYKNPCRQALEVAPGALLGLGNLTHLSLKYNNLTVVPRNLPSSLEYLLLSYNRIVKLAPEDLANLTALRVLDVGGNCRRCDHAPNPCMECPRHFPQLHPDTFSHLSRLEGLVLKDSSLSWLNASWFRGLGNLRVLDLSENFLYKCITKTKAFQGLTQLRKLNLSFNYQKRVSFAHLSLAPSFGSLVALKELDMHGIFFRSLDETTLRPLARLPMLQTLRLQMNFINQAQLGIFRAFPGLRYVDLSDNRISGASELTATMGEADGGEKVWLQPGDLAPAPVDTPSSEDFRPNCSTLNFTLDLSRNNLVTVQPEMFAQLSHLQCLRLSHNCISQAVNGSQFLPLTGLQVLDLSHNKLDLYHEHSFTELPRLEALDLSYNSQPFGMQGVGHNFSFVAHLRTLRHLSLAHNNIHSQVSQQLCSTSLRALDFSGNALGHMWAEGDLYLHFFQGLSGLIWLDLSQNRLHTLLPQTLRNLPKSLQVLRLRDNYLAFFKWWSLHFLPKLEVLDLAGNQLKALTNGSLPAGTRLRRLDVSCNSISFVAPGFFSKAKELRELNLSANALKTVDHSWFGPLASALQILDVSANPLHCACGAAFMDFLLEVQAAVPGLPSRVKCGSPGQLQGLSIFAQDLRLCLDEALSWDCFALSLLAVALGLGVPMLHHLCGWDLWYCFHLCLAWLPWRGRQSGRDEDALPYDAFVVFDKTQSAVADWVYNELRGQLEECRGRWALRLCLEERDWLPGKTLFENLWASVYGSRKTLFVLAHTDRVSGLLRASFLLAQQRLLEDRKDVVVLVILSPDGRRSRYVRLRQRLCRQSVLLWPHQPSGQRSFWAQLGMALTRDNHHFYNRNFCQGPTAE
- Test description: TLR9 inhibition reporter assay (HEK-Blue SEAP)
- Details: read-out: TLR9 IC50; HEK-Blue cells overexpressing human TLR9, SEAP reporter, ODN2006 5 nM
Parameter measured: IC50 (nM)

# value of IC50, human TLR9 (Homo sapiens (Human), UniProt Q9NR96), item Cc1c(-c2[nH]c3ccc(C4CCC(NC(C)(C)C(=O)N(C)C)CC4)nc3c2C(C)C)cn2ncnc2c1C (stereo not shown) = 3600

I. Cc1c(-c2[nH]c3ccc(C4CCC(NC5CCOCC5)CC4)nc3c2C(C)C)cn2ncnc2c1C (stereo not shown) [Example 453]
II. COc1cc(-c2[nH]c3ccc(CCC4CN(CC(=O)N(C)C)C4)nc3c2C(C)C)cn2ncnc12
**Query** Compare the recorded IC50 of I and II ; state which is larger. Answer by quoting the chosen item's label.
**Result** I
(I: 1440 nM, II: 433 nM)

I. COc1cc(-c2[nH]c3ccc(OCC4CCN(CC(=O)N(C)C)CC4)nc3c2C(C)C)cn2ncnc12
II. COc1cc(-c2[nH]c3ccc(C4CC(N(C)CC(=O)N(C)C)C4)nc3c2C(C)C)cn2ncnc12 (stereo not shown)
III. COc1cc(-c2[nH]c3ccc(C4CCC(N(CC#N)CC#N)C4)nc3c2C(C)C)cn2ncnc12 (stereo not shown) [Example 730]
IV. Cc1c(-c2[nH]c3ccc(CCC4CN(Cc5c[nH]nn5)C4)nc3c2C(C)C)cn2ncnc2c1C
V. COc1cc(-c2[nH]c3ccc(C4CC(NCCS(C)(=O)=O)C4)nc3c2C(C)C)cn2ncnc12 (stereo not shown)
**Query** # desc sort on IC50 across 5 compounds Give the labels in the order requested.
**Result** III, II, V, I, IV

Taken from patent US10544143B2.
